Test system: U87MG Cell line (glioblastoma cell line)
assay protocol: Cell proliferation assay (MTT), in-vitro anticancer activity against U87MG cell line
Format: cell-based
assay context: Homo sapiens, U-87 MG, 2.5 μM, 72 h
Description: Each cell line was plated in 96-well microtiter plates (10,000 cells per well), and serial dilutions of indicated compounds were added. At the end of the incubation period (72 h at 37° C.), cell viability was determined by a tetrazolium dye, MTT (3-(4,5-dimethylthiazol-2-yl)-2,5-diphenyl tetrazolium bromide) (Promega, USA). The formazan crystals were dissolved in DMSO, and the absorbance at 600 nm was recorded using an ELISA plate reader. […]
reported property: viability at 2.5 µM (%)

{"compound": "Cc1ccc(Nc2nc(N)c(-c3cc(=O)c4ccccc4o3)s2)cc1", "val": 70.3}
{"compound": "COc1ccc2oc(-c3sc(Nc4c(C)cccc4C)nc3N)cc(=O)c2c1", "val": 65.9}
{"compound": "COc1ccc(Nc2nc(N)c(-c3cc(=O)c4ccc(OC)cc4o3)s2)cc1", "val": 70.6}
{"compound": "Nc1nc(Nc2ccccc2)sc1-c1cc(=O)c2ccccc2o1", "val": 70.5}
{"compound": "COc1ccc2oc(-c3sc(Nc4ccccc4C)nc3N)cc(=O)c2c1", "val": 67.2}
{"compound": "Cc1ccc(Nc2nc(N)c(-c3cc(=O)c4ccc(O)cc4o3)s2)cc1", "val": 28.1}
{"compound": "Nc1nc(Nc2ccccc2)sc1-c1cc(=O)c2ccc(O)cc2o1", "val": 68}
{"compound": "COc1ccc2oc(-c3sc(Nc4ccc(C)cc4)nc3N)cc(=O)c2c1", "val": 69.4}
{"compound": "COc1ccc2c(=O)cc(-c3sc(Nc4ccccc4OC)nc3N)oc2c1", "val": 68.7}
{"compound": "COc1ccc(Nc2nc(N)c(-c3cc(=O)c4ccc(O)cc4o3)s2)cc1", "val": 25.8}
{"compound": "Nc1nc(Nc2c(Cl)cccc2Cl)sc1-c1cc(=O)c2ccc(O)cc2o1", "val": 69.9}
{"compound": "COc1cc2ncnc(Nc3ccc(F)c(Cl)c3)c2cc1OCCCN1CCOCC1 [Gefitinib, gefitinib, reference compound]", "val": 35.3}
{"compound": "COc1ccc2oc(-c3sc(Nc4c(Cl)cccc4Cl)nc3N)cc(=O)c2c1", "val": 72.4}
{"compound": "Cc1ccccc1Nc1nc(N)c(-c2cc(=O)c3ccc(O)cc3o2)s1", "val": 68.8}
{"compound": "Cc1cccc(C)c1Nc1nc(N)c(-c2cc(=O)c3ccc(O)cc3o2)s1", "val": 65.6}
{"compound": "COc1ccccc1Nc1nc(N)c(-c2cc(=O)c3ccc(O)cc3o2)s1", "val": 65.8}

---

System: U87MG Cell line (glioblastoma cell line)
assay protocol: Cell proliferation assay (MTT), in-vitro anticancer activity against U87MG cell line
Format: cell-based
assay context: Homo sapiens, U-87 MG, 0.01 μM, 72 h
Experimental: Each cell line was plated in 96-well microtiter plates (10,000 cells per well), and serial dilutions of indicated compounds were added. At the end of the incubation period (72 h at 37° C.), cell viability was determined by a tetrazolium dye, MTT (3-(4,5-dimethylthiazol-2-yl)-2,5-diphenyl tetrazolium bromide) (Promega, USA). The formazan crystals were dissolved in DMSO, and the absorbance at 600 nm was recorded using an ELISA plate reader. […]
Entries and their viability at 0.01 µM values follow.

{"molecule": "Nc1nc(Nc2ccccc2)sc1-c1cc(=O)c2ccccc2o1 [Compound S1-M1]", "viability at 0.01 µM [%]": 88}
{"molecule": "COc1ccc2oc(-c3sc(Nc4c(C)cccc4C)nc3N)cc(=O)c2c1 [Compound S1-M12]", "viability at 0.01 µM [%]": 85.1}
{"molecule": "COc1ccc2oc(-c3sc(Nc4ccccc4C)nc3N)cc(=O)c2c1 [Compound S1-M11]", "viability at 0.01 µM [%]": 83.8}
{"molecule": "COc1ccc2oc(-c3sc(Nc4c(Cl)cccc4Cl)nc3N)cc(=O)c2c1 [Compound S1-M13]", "viability at 0.01 µM [%]": 90.4}
{"molecule": "Cc1ccc(Nc2nc(N)c(-c3cc(=O)c4ccc(O)cc4o3)s2)cc1 [Compound S1-M2]", "viability at 0.01 µM [%]": 41.1}
{"molecule": "COc1ccc(Nc2nc(N)c(-c3cc(=O)c4ccc(O)cc4o3)s2)cc1 [Compound S1-M6]", "viability at 0.01 µM [%]": 48.7}
{"molecule": "Cc1ccc(Nc2nc(N)c(-c3cc(=O)c4ccccc4o3)s2)cc1 [Compound S1-M9]", "viability at 0.01 µM [%]": 87}
{"molecule": "COc1ccc2oc(-c3sc(Nc4ccc(C)cc4)nc3N)cc(=O)c2c1 [Compound S1-M10]", "viability at 0.01 µM [%]": 87.9}
{"molecule": "Cc1cccc(C)c1Nc1nc(N)c(-c2cc(=O)c3ccc(O)cc3o2)s1 [Compound S1-M4]", "viability at 0.01 µM [%]": 80.6}
{"molecule": "COc1ccc(Nc2nc(N)c(-c3cc(=O)c4ccc(OC)cc4o3)s2)cc1 [Compound S1-M14]", "viability at 0.01 µM [%]": 91}
{"molecule": "COc1ccc2c(=O)cc(-c3sc(Nc4ccccc4OC)nc3N)oc2c1 [Compound S1-M15]", "viability at 0.01 µM [%]": 89.1}
{"molecule": "COc1ccccc1Nc1nc(N)c(-c2cc(=O)c3ccc(O)cc3o2)s1 [Compound S1-M7]", "viability at 0.01 µM [%]": 85.1}
{"molecule": "Cc1ccccc1Nc1nc(N)c(-c2cc(=O)c3ccc(O)cc3o2)s1 [Compound S1-M3]", "viability at 0.01 µM [%]": 82.6}
{"molecule": "Nc1nc(Nc2c(Cl)cccc2Cl)sc1-c1cc(=O)c2ccc(O)cc2o1 [Compound S1-M5]", "viability at 0.01 µM [%]": 84.8}
{"molecule": "Nc1nc(Nc2ccccc2)sc1-c1cc(=O)c2ccc(O)cc2o1 [Compound S1-M8]", "viability at 0.01 µM [%]": 88.3}
{"molecule": "COc1cc2ncnc(Nc3ccc(F)c(Cl)c3)c2cc1OCCCN1CCOCC1 [Gefitinib, gefitinib, reference compound]", "viability at 0.01 µM [%]": 55.2}

---

assay protocol: Log P (Table 4)
Format: physicochemical
assay context: method not stated
Entries and their logP values follow.

{"structure notation": "Cc1ccc(Nc2nc(N)c(-c3cc(=O)c4ccccc4o3)s2)cc1", "logP": 1.9}
{"structure notation": "Cc1ccc(Nc2nc(N)c(-c3cc(=O)c4ccc(O)cc4o3)s2)cc1", "logP": 1.9}
{"structure notation": "Nc1nc(Nc2c(Cl)cccc2Cl)sc1-c1cc(=O)c2ccc(O)cc2o1", "logP": 3.02}
{"structure notation": "COc1ccc2oc(-c3sc(Nc4c(Cl)cccc4Cl)nc3N)cc(=O)c2c1", "logP": 2.18}
{"structure notation": "COc1ccc2oc(-c3sc(Nc4c(C)cccc4C)nc3N)cc(=O)c2c1", "logP": 2.7}
{"structure notation": "COc1ccc(Nc2nc(N)c(-c3cc(=O)c4ccc(OC)cc4o3)s2)cc1", "logP": 2.6}
